- Tested on: Enterococcus faecalis (NCTC12697)
- Type: cell-based
Positions of bridges follow the written chain, without caps; N, C: chain ends. Residues, ends and D or L forms follow the SMILES beside them.
endpoint: MBC E. faecalis

Just so you know, measured MBC E. faecalis for CC[C@H](C)[C@@H]1NC(=O)[C@H](C)NC(=O)[C@@H](NC(=O)[C@H](CCCCN)NC(=O)[C@H](C)NC(=O)[C@H](C)NC(=O)[C@H](CC(C)C)NC(=O)CNC(=O)[C@H](C)NC(=O)[C@@H](NC(=O)[C@H](CC(C)C)NC(=O)[C@@H]2CCCN2C(=O)[C@H](CC(C)C)NC(=O)[C@@H](N)Cc2ccccc2)[C@@H](C)CC)CSSC[C@@H](C(=O)O)NC(=O)[C@H](CCCCN)NC(=O)[C@H](CCCCN)NC(=O)[C@H]([C@@H](C)O)NC1=O [Peptide B1A1] (H-FLPLIAGLAAKCAITKKC-OH; disulfide 12-18) came out at > 512 µM

Just so you know, measured MBC E. faecalis for CC[C@H](C)[C@@H]1NC(=O)[C@H](C)NC(=O)[C@@H](NC(=O)[C@H](Cc2ccccc2)NC(=O)[C@@H](NC(=O)[C@H](CCCCN)NC(=O)[C@@H]2CCCN2C(=O)[C@H](CC(C)C)NC(=O)[C@H](Cc2ccccc2)NC(=O)[C@@H](N)CCCCN)[C@@H](C)CC)CSSC[C@@H](C(=O)O)NC(=O)[C@H](CCCCN)NC(=O)[C@H](CCCCN)NC(=O)[C@H]([C@@H](C)O)NC1=O [KB2] (H-KFLPKIFCAITKKC-OH; disulfide 8-14) came out at > 512 µM

Just so you know, measured MBC E. faecalis for CC[C@H](C)[C@@H]1NC(=O)[C@H](C)NC(=O)[C@@H](NC(=O)[C@H](Cc2ccccc2)NC(=O)[C@@H](NC(=O)[C@H](CCCCN)NC(=O)[C@@H]2CCCN2C(=O)[C@H](CC(C)C)NC(=O)[C@@H](N)Cc2ccccc2)[C@@H](C)CC)CSSC[C@@H](C(=O)O)NC(=O)[C@H](CCCCN)NC(=O)[C@H](CCCCN)NC(=O)[C@H]([C@@H](C)O)NC1=O [Peptide B1A2] (H-FLPKIFCAITKKC-OH; disulfide 7-13) came out at > 512 µM
